Consider the following compounds and their measured S (slope of the trend line RM vs φ) readings.
experiment: Lipophilicity by reversed-phase TLC on RP-18 WF254s plates with standardization; conditions: methanol/water

# compound, S (slope of the trend line RM vs φ)
data = [
    ("CC(=O)c1c(C)cc2oc(=O)cc(C)c2c1OCC#N", 2.3247),
    ("CC(=O)c1c(O)ccc2c(C)cc(=O)oc12 [Compound 9, 8-Acetyl-7-hydroxy-4-methylcoumarin]", 2.5967),
    ("O=c1ccc2ccc(O)cc2o1", 1.9022),
    ("Cc1cc(=O)oc2cc(O)ccc12 [Compound 8, 7-hydroxy-4-methylcoumarin]", 2.0525),
    ("Cc1cc(OCC#N)c2c(C)cc(=O)oc2c1", 2.677),
    ("c1ccc(Nc2ccccc2)cc1 [Diphenylamine, diphenylamine, reference compound]", 2.9469),
    ("O=[N+]([O-])c1ccccc1O [2-Nitrophenol, 2-nitrophenol, reference compound]", 1.9676),
    ("Nc1ccc(Cl)c(Cl)c1 [3,4-Dichloroaniline, 3,4-dichloroaniline, reference compound]", 3.2073),
]
